Catalogue of Cmax readings, one per entry.
Assay: Pharmacokinetic interaction between gemfibrozil and LipoCol Forte
Assay type: in vivo, human
Conditions: human, plasma, oral, 1 LipoCol Forte capsule
EXPERIMENTAL_ENDPOINT: Cmax (ng/mL)

- COMPOUND: "CC[C@H](C)C(=O)O[C@H]1C[C@@H](C)C=C2C=C[C@H](C)[C@H](CC[C@@H](O)C[C@@H](O)CC(=O)O)[C@H]21"
  EXPERIMENTAL_ENDPOINT: "Cmax"
  UNIT_ABBREVIATION: "ng/mL"
  EXPERIMENTAL_VALUE: 6.79
- COMPOUND: "CC[C@H](C)C(=O)O[C@H]1C[C@@H](C)C=C2C=C[C@H](C)[C@H](CC[C@@H]3C[C@@H](O)CC(=O)O3)[C@H]21 [Pure lovastatin, lovastatin, reference compound]"
  EXPERIMENTAL_ENDPOINT: "Cmax"
  UNIT_ABBREVIATION: "ng/mL"
  EXPERIMENTAL_VALUE: 1.53
